tested on: Botrytis cinerea; assay: Fungicidal activity against Botryotinia fuckeliana assessed as inhibition of mycelial elongation at 50 ug/mL incubated for 48 hr; type: functional
Listing: inhibition at 50 µg/mL of selected molecules
value_type: inhibition at 50 µg/mL

                                   molecule  endpoint_result
0  CO/N=C(/C(=O)OC)c1ccccc1CO/N=C/c1c(C)nn(C)c1Oc1cccc([N+](=O)[O-])c1            98.8%
1  CO/N=C(/C(=O)OC)c1ccccc1CO/N=C/c1c(C)nn(C)c1Oc1ccccc1C            80.8%
2  CO/N=C(/C(=O)OC)c1ccccc1CO/N=C/c1c(C)nn(C)c1Oc1ccc(C)cc1            80.8%
3  CO/N=C(/C(=O)OC)c1ccccc1CO/N=C/c1c(C)nn(C)c1Oc1ccc(F)cc1            88.5%
4  CO/N=C(/C(=O)OC)c1ccccc1CO/N=C/c1c(C)nn(C)c1Oc1ccccc1F            84.6%

---

tested on: Botrytis cinerea; experiment: Fungicidal activity against Botryotinia fuckeliana assessed as inhibition of mycelial elongation at 50 ug/mL incubated for 48 hr; format: functional
Listing: inhibition at 50 µg/mL of selected compounds
value_type: inhibition at 50 µg/mL (%)

>>> print(df.to_string())
                                   compound  readout_unit  endpoint_result
0  CO/N=C(/C(=O)OC)c1ccccc1CO/N=C/c1c(C)nn(C)c1Oc1ccc(Cl)cc1Cl             %              100
1  CCCOc1c(/C=N/OCc2ccccc2/C(=N\OC)C(=O)OC)c(C)nn1C             %             87.1
2  CO/N=C(/C(=O)OC)c1ccccc1CO/N=C/c1c(C)nn(C)c1Oc1cccc(C(F)(F)F)c1             %             92.3
3  CO/N=C(/C(=O)OC)c1ccccc1COc1ccccc1C [KRESOXIM-METHYL]             %             97.2
4  CO/N=C(/C(=O)OC)c1ccccc1CO/N=C/c1c(C)nn(C)c1OCC(F)(F)F             %              100
5  CO/N=C(/C(=O)OC)c1ccccc1CO/N=C/c1c(C)nn(C)c1OC             %             85.4
6  CO/N=C(/C(=O)OC)c1ccccc1CO/N=C/c1c(C)nn(C)c1Oc1cccc(C)c1             %             80.8
7  CO/N=C(/C(=O)OC)c1ccccc1CO/N=C/c1c(C)nn(C)c1Oc1ccc(Cl)cc1             %              100
8  CCOc1c(/C=N/OCc2ccccc2/C(=N\OC)C(=O)OC)c(C)nn1C             %             96.8

---

tested on: Fusarium graminearum; assay: Fungicidal activity against Fusarium graminearum assessed as inhibition of mycelial elongation at 50 ug/mL incubated for 48 hr; assay type: functional
value_type: inhibition at 50 µg/mL (%)

                                   molecule  endpoint_result
0  CO/N=C(/C(=O)OC)c1ccccc1CO/N=C/c1c(C)nn(C)c1Oc1cccc(C)c1             96.9
1  CO/N=C(/C(=O)OC)c1ccccc1CO/N=C/c1c(C)nn(C)c1Oc1ccc(F)cc1             59.4
2  CO/N=C(/C(=O)OC)c1ccccc1CO/N=C/c1c(C)nn(C)c1Oc1ccc(C)cc1               50
3  CO/N=C(/C(=O)OC)c1ccccc1CO/N=C/c1c(C)nn(C)c1Oc1cccc([N+](=O)[O-])c1             62.9
4  CO/N=C(/C(=O)OC)c1ccccc1CO/N=C/c1c(C)nn(C)c1Oc1ccc(Cl)cc1               80

---

test system: Fusarium graminearum; assay: Fungicidal activity against Fusarium graminearum assessed as inhibition of mycelial elongation at 50 ug/mL incubated for 48 hr; assay type: functional
Label scheme for inhibition at 50 µg/mL: lower than 80% is False, 80% and above is True.

>>> df
                                   molecule     system_under_test  label
0  CO/N=C(/C(=O)OC)c1ccccc1CO/N=C/c1c(C)nn(C)c1Oc1ccccc1C  Fusarium graminearum  False
1       CO/N=C(/C(=O)OC)c1ccccc1COc1ccccc1C  Fusarium graminearum   True
2  CCOc1c(/C=N/OCc2ccccc2/C(=N\OC)C(=O)OC)c(C)nn1C  Fusarium graminearum   True
3  CO/N=C(/C(=O)OC)c1ccccc1CO/N=C/c1c(C)nn(C)c1Oc1cccc(C(F)(F)F)c1  Fusarium graminearum  False
4  CO/N=C(/C(=O)OC)c1ccccc1CO/N=C/c1c(C)nn(C)c1Oc1ccccc1F  Fusarium graminearum  False
5  CO/N=C(/C(=O)OC)c1ccccc1CO/N=C/c1c(C)nn(C)c1Oc1ccc(Cl)cc1Cl  Fusarium graminearum   True

---

test system: Bipolaris maydis; test: Fungicidal activity against Cochliobolus heterostrophus assessed as inhibition of mycelial elongation at 50 ug/mL incubated for 48 hr; assay type: functional
Listing: inhibition at 50 µg/mL of selected molecules
value_type: inhibition at 50 µg/mL (%)

>>> print(df.to_string())
                                    molecule  system_under_test              value_type  endpoint_result
 0  CO/N=C(/C(=O)OC)c1ccccc1CO/N=C/c1c(C)nn(C)c1Oc1cccc(C(F)(F)F)c1   Bipolaris maydis  inhibition at 50 µg/mL             68.2
 1  CCCOc1c(/C=N/OCc2ccccc2/C(=N\OC)C(=O)OC)c(C)nn1C   Bipolaris maydis  inhibition at 50 µg/mL               85
 2  CO/N=C(/C(=O)OC)c1ccccc1CO/N=C/c1c(C)nn(C)c1Oc1ccccc1C   Bipolaris maydis  inhibition at 50 µg/mL             72.7
 3  CO/N=C(/C(=O)OC)c1ccccc1CO/N=C/c1c(C)nn(C)c1OCC(F)(F)F   Bipolaris maydis  inhibition at 50 µg/mL             90.9
 4  CO/N=C(/C(=O)OC)c1ccccc1CO/N=C/c1c(C)nn(C)c1Oc1cccc(C)c1   Bipolaris maydis  inhibition at 50 µg/mL             81.8
 5  CO/N=C(/C(=O)OC)c1ccccc1CO/N=C/c1c(C)nn(C)c1Oc1ccc(C)cc1   Bipolaris maydis  inhibition at 50 µg/mL             72.7
 6  CO/N=C(/C(=O)OC)c1ccccc1CO/N=C/c1c(C)nn(C)c1OC   Bipolaris maydis  inhibition at 50 µg/mL             86.7
 7       CO/N=C(/C(=O)OC)c1ccccc1COc1ccccc1C   Bipolaris maydis  inhibition at 50 µg/mL             90.6
 8  CO/N=C(/C(=O)OC)c1ccccc1CO/N=C/c1c(C)nn(C)c1Oc1ccc(Cl)cc1Cl   Bipolaris maydis  inhibition at 50 µg/mL             92.9
 9  CO/N=C(/C(=O)OC)c1ccccc1CO/N=C/c1c(C)nn(C)c1Oc1ccc(F)cc1   Bipolaris maydis  inhibition at 50 µg/mL             86.4
10  CCOc1c(/C=N/OCc2ccccc2/C(=N\OC)C(=O)OC)c(C)nn1C   Bipolaris maydis  inhibition at 50 µg/mL             92.6
11  CO/N=C(/C(=O)OC)c1ccccc1CO/N=C/c1c(C)nn(C)c1Oc1cccc([N+](=O)[O-])c1   Bipolaris maydis  inhibition at 50 µg/mL             64.3
12  CO/N=C(/C(=O)OC)c1ccccc1CO/N=C/c1c(C)nn(C)c1Oc1ccccc1F   Bipolaris maydis  inhibition at 50 µg/mL             68.2
13  CO/N=C(/C(=O)OC)c1ccccc1CO/N=C/c1c(C)nn(C)c1Oc1ccc(Cl)cc1   Bipolaris maydis  inhibition at 50 µg/mL             92.9

---

tested on: Fusarium graminearum; test: Fungicidal activity against Fusarium graminearum assessed as inhibition of mycelial elongation at 50 ug/mL incubated for 48 hr; format: functional
value_type: inhibition at 50 µg/mL (%)

>>> print(df.to_string())
                                   molecule              value_type  endpoint_result
0  CCCOc1c(/C=N/OCc2ccccc2/C(=N\OC)C(=O)OC)c(C)nn1C  inhibition at 50 µg/mL             78.4
1  CO/N=C(/C(=O)OC)c1ccccc1CO/N=C/c1c(C)nn(C)c1OCC(F)(F)F  inhibition at 50 µg/mL               80
2  CO/N=C(/C(=O)OC)c1ccccc1CO/N=C/c1c(C)nn(C)c1OC  inhibition at 50 µg/mL             79.4
